// provenance: paper PMC5554137

Collected Ki values appear next to each entry.
EXPERIMENTAL_SYSTEM: FXa (Homo sapiens)
Construct: purchased Haematologic Technologies (Essex Junction, VT, USA)
ASSAY_NAME: Inhibition of amidolytic activity of FXa toward S-2222 (Michaelis-Menten, Lineweaver-Burk; with or without TFPI)
Format: biochemical
MEASUREMENT_SETUP: substrate S-2222
MEASUREMENT_NAME: Ki (µM)

> print(dat)
                               query.smiles  measurement.name  numeric.readout
1  CC(=O)NCCc1ccc2c(c1)O[C@H](NC(C)=O)[C@@H](c1ccc(O)c(O)c1)O2                Ki             4.45
2  CC(=O)NCCc1ccc2c(c1)O[C@H](c1ccc(O)c(O)c1)[C@H](NC(C)=O)O2                Ki             2.96
3  CC(=O)NCCc1ccc2c(c1)O[C@H](c1ccc(O)c(O)c1)[C@@H](NC(C)=O)O2                Ki             4.72
4  CC(=O)NCCc1ccc2c(c1)O[C@@H](NC(C)=O)[C@@H](c1ccc(O)c(O)c1)O2                Ki             4.13

====

The following compounds each carry a recorded Ki for Plasmin (Homo sapiens, UniProt P00747).
MEASUREMENT_NAME: Ki

> print(dat)
                               query.smiles  measurement.name    result
1  CC(=O)NCCc1ccc2c(c1)O[C@H](NC(C)=O)[C@@H](c1ccc(O)c(O)c1)O2                Ki  > 500 µM
2  CC(=O)NCCc1ccc2c(c1)O[C@H](c1ccc(O)c(O)c1)[C@@H](NC(C)=O)O2                Ki  > 500 µM
3  CC(=O)NCCc1ccc2c(c1)O[C@H](c1ccc(O)c(O)c1)[C@H](NC(C)=O)O2                Ki  > 300 µM
4  CC(=O)NCCc1ccc2c(c1)O[C@@H](NC(C)=O)[C@@H](c1ccc(O)c(O)c1)O2                Ki  > 500 µM
5  CC(=O)N/C=C/c1ccc2c(c1)O[C@H](c1ccc(O)c(O)c1)[C@@H](NC(C)=O)O2                Ki  > 250 µM

====

EXPERIMENTAL_SYSTEM: tPA (Homo sapiens, UniProt P00750)
Sequence (P00750 36-562): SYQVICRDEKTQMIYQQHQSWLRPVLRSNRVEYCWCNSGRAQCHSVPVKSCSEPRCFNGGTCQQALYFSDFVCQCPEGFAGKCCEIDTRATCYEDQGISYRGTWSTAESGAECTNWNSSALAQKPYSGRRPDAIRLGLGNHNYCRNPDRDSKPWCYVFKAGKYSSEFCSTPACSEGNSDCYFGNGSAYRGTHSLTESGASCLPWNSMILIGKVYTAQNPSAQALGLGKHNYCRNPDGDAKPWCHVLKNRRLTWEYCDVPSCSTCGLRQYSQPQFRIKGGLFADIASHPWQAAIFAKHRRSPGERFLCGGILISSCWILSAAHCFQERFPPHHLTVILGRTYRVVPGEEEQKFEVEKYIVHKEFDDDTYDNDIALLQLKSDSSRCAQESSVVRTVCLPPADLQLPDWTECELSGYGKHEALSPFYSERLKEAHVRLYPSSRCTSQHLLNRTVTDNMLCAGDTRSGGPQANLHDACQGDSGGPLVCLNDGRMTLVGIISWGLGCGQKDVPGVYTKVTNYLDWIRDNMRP
ASSAY_NAME: Chromogenic substrate assay, Ki determination, tPA
Type: biochemical
MEASUREMENT_NAME: Ratio = Ki enzyme/Ki Factor Xa, tPA

> print(dat)
                               query.smiles  result
1  CC(=O)NCCc1ccc2c(c1)O[C@H](c1ccc(O)c(O)c1)[C@@H](NC(C)=O)O2    >100
2  CC(=O)NCCc1ccc2c(c1)O[C@@H](NC(C)=O)[C@@H](c1ccc(O)c(O)c1)O2    >100
3  CC(=O)NCCc1ccc2c(c1)O[C@H](NC(C)=O)[C@@H](c1ccc(O)c(O)c1)O2    >100
4  CC(=O)NCCc1ccc2c(c1)O[C@H](c1ccc(O)c(O)c1)[C@H](NC(C)=O)O2    >100

====

The following molecules each carry a recorded Ki for tPA (Homo sapiens, UniProt P00750).
MEASUREMENT_NAME: Ki

> print(dat)
                               query.smiles    result
1  CC(=O)N/C=C/c1ccc2c(c1)O[C@H](c1ccc(O)c(O)c1)[C@@H](NC(C)=O)O2  > 250 µM
2  CC(=O)NCCc1ccc2c(c1)O[C@H](c1ccc(O)c(O)c1)[C@@H](NC(C)=O)O2  > 500 µM
3  CC(=O)NCCc1ccc2c(c1)O[C@H](c1ccc(O)c(O)c1)[C@H](NC(C)=O)O2  > 300 µM
4  CC(=O)NCCc1ccc2c(c1)O[C@H](NC(C)=O)[C@@H](c1ccc(O)c(O)c1)O2  > 500 µM
5  CC(=O)NCCc1ccc2c(c1)O[C@@H](NC(C)=O)[C@@H](c1ccc(O)c(O)c1)O2  > 500 µM

====

EXPERIMENTAL_SYSTEM: Trypsin
ASSAY_NAME: Chromogenic substrate assay, Ki determination, Trypsin
Format: biochemical, human
MEASUREMENT_SETUP: substrate S-2222
pKi: −log10 of the molar value.
MEASUREMENT_NAME: pKi

> print(dat)
                               query.smiles  result
1  CC(=O)NCCc1ccc2c(c1)O[C@H](NC(C)=O)[C@@H](c1ccc(O)c(O)c1)O2  < 3.30
2  CC(=O)NCCc1ccc2c(c1)O[C@@H](NC(C)=O)[C@@H](c1ccc(O)c(O)c1)O2  < 3.30
3  CC(=O)NCCc1ccc2c(c1)O[C@H](c1ccc(O)c(O)c1)[C@@H](NC(C)=O)O2  < 3.30
4  CC(=O)NCCc1ccc2c(c1)O[C@H](c1ccc(O)c(O)c1)[C@H](NC(C)=O)O2  < 3.52
5  CC(=O)N/C=C/c1ccc2c(c1)O[C@H](c1ccc(O)c(O)c1)[C@@H](NC(C)=O)O2  < 3.60

====

EXPERIMENTAL_SYSTEM: FXa (Homo sapiens)
Construct: purchased Haematologic Technologies (Essex Junction, VT, USA)
ASSAY_NAME: Inhibition of amidolytic activity of FXa toward S-2222 (Michaelis-Menten, Lineweaver-Burk; with or without TFPI)
Type: biochemical
MEASUREMENT_SETUP: compound at 5 µM; FXa, S-2222
MEASUREMENT_NAME: slope of inhibition activity plot

> print(dat)
                               query.smiles  numeric.readout
1  CC(=O)NCCc1ccc2c(c1)O[C@H](c1ccc(O)c(O)c1)[C@H](NC(C)=O)O2            0.957
2  CC(=O)NCCc1ccc2c(c1)O[C@H](NC(C)=O)[C@@H](c1ccc(O)c(O)c1)O2            0.464
3  CC(=O)NCCc1ccc2c(c1)O[C@@H](NC(C)=O)[C@@H](c1ccc(O)c(O)c1)O2            0.465
4  CC(=O)NCCc1ccc2c(c1)O[C@H](c1ccc(O)c(O)c1)[C@@H](NC(C)=O)O2            0.398

====

EXPERIMENTAL_SYSTEM: α-Thrombin (Homo sapiens, UniProt P00734)
MEASUREMENT_NAME: Ki

> print(dat)
                               query.smiles  measurement.name    result
1  CC(=O)N/C=C/c1ccc2c(c1)O[C@H](c1ccc(O)c(O)c1)[C@@H](NC(C)=O)O2                Ki  > 250 µM
2  CC(=O)NCCc1ccc2c(c1)O[C@H](c1ccc(O)c(O)c1)[C@H](NC(C)=O)O2                Ki  > 300 µM
3  CC(=O)NCCc1ccc2c(c1)O[C@H](NC(C)=O)[C@@H](c1ccc(O)c(O)c1)O2                Ki  > 500 µM
4  CC(=O)NCCc1ccc2c(c1)O[C@H](c1ccc(O)c(O)c1)[C@@H](NC(C)=O)O2                Ki  > 500 µM
5  CC(=O)NCCc1ccc2c(c1)O[C@@H](NC(C)=O)[C@@H](c1ccc(O)c(O)c1)O2                Ki  > 500 µM

====

EXPERIMENTAL_SYSTEM: FXa (Homo sapiens, UniProt P00742)
Construct: purchased Haematologic Technologies (Essex Junction, VT, USA)
Sequence (P00742 235-488 limits assumed): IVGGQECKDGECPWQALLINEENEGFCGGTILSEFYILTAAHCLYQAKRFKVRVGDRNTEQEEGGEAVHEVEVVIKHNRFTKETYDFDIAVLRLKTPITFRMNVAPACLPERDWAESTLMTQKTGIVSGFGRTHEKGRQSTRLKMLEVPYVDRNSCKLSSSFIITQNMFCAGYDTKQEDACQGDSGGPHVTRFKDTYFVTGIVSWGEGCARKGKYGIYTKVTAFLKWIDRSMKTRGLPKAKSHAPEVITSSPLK
Sequence (P00742 41-179 limits assumed): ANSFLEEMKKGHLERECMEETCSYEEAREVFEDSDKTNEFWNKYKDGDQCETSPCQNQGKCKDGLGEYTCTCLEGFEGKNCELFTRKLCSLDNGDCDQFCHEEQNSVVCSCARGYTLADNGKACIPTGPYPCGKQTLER
ASSAY_NAME: Inhibition of amidolytic activity of FXa toward S-2222 (Michaelis-Menten, Lineweaver-Burk; with or without TFPI)
Format: biochemical
MEASUREMENT_SETUP: compound at 2 µM; FXa, S-2222
MEASUREMENT_NAME: slope of inhibition activity plot

> print(dat)
                               query.smiles                   measurement.name  numeric.readout
1  CC(=O)NCCc1ccc2c(c1)O[C@H](NC(C)=O)[C@@H](c1ccc(O)c(O)c1)O2  slope of inhibition activity plot            0.408
2  CC(=O)NCCc1ccc2c(c1)O[C@@H](NC(C)=O)[C@@H](c1ccc(O)c(O)c1)O2  slope of inhibition activity plot            0.442
3  CC(=O)NCCc1ccc2c(c1)O[C@H](c1ccc(O)c(O)c1)[C@H](NC(C)=O)O2  slope of inhibition activity plot            0.707
4  CC(=O)NCCc1ccc2c(c1)O[C@H](c1ccc(O)c(O)c1)[C@@H](NC(C)=O)O2  slope of inhibition activity plot            0.376
